B1: NLV3 TCR beta chain (CDR3β only) (parent)
chain: ASSPTGGSPSPLH
partner: MLVPMVATV

# Variants of: B1
# protocol: T-Switch: Jurkat TCRβ−/− cells expressing a CDR3 saturation-mutagenesis library, stained with two peptide-HLA-A*02:01 tetramers (original and novel peptide) plus anti-CD3, FACS-sorted into four gates, gDNA sequenced
# particulars: with HLA-A*02:01 with peptide … (NLV 3-1, the original bait), tetramers 1 µg/mL, 30 min on ice, DP and SW gates expanded about 10 days between rounds ('two to three rounds of selection' in the Methods), gate SP: higher = more of the variant in the gate that binds the original peptide and not the novel one = retained original binding. Fold enrichment of the CDR3 variant in one FACS gate of a two-tetra, unresolved parent, parent is a CDR3 fragment, scale: fold enrichment, numbering: sequential-on-construct, sequence …
propertyMeasured: enrichment
Respond with the number and no other words.

# annotated cases, reported enrichment shown
variantName	enrichment
[…] (CDR3 as printed); S8K derived by comparing it with the table's wild-type CDR3 ASSPTGGSPSPLH	0
[…] (CDR3 as printed); P11I derived by comparing it with the table's wild-type CDR3 ASSPTGGSPSPLH	1.23
[…] (CDR3 as printed); P9W derived by comparing it with the table's wild-type CDR3 ASSPTGGSPSPLH	0
[…] (CDR3 as printed); P4D derived by comparing it with the table's wild-type CDR3 ASSPTGGSPSPLH	0
[…] (CDR3 as printed); G7L derived by comparing it with the table's wild-type CDR3 ASSPTGGSPSPLH	0

Inquiry: Reported enrichment, variant […] (CDR3 as printed); S3A derived by comparing it with the table's wild-type CDR3 ASSPTGGSPSPLH : ____
Reply text: 9.82

Inquiry: And for […] (CDR3 as printed); H13G derived by comparing it with the table's wild-type CDR3 ASSPTGGSPSPLH ?
Reply text: 0.848

Inquiry: How about […] (CDR3 as printed); P11A derived by comparing it with the table's wild-type CDR3 ASSPTGGSPSPLH ?
Reply text: 7.15

Inquiry: # repeat for […] (CDR3 as printed); T5C derived by comparing it with the table's wild-type CDR3 ASSPTGGSPSPLH
Reply text: 0

Inquiry: One more variant: […] (CDR3 as printed); T5S derived by comparing it with the table's wild-type CDR3 ASSPTGGSPSPLH
Reply text: 0

Inquiry: Now consider […] (CDR3 as printed); S3Q derived by comparing it with the table's wild-type CDR3 ASSPTGGSPSPLH .
Reply text: 0

Inquiry: Again, but for […] (CDR3 as printed); A1C derived by comparing it with the table's wild-type CDR3 ASSPTGGSPSPLH
Reply text: 1.12

Inquiry: What do we get for […] (CDR3 as printed); L12G derived by comparing it with the table's wild-type CDR3 ASSPTGGSPSPLH ?
Reply text: 0

Inquiry: Next variant: […] (CDR3 as printed); T5Q derived by comparing it with the table's wild-type CDR3 ASSPTGGSPSPLH
Reply text: 0

Inquiry: Now the variant […] (CDR3 as printed); L12P derived by comparing it with the table's wild-type CDR3 ASSPTGGSPSPLH
Reply text: 0

Origin of the recorded values: paper PMC13397619
